TARGET: GMPPNP-loaded KRAS G12C (Homo sapiens, UniProt P01116, G12C)
Sequence (P01116 1-188 isoform P01116-2 G12C): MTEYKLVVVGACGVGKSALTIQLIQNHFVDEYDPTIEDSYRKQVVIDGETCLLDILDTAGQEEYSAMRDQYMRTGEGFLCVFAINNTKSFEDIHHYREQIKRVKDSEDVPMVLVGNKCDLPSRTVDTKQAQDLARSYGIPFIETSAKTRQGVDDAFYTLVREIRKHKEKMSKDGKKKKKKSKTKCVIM
ASSAY_REMARKS: KRAS G12C RAF Disruption Assay (HTRF)
CONDITION_LABEL: recombinant GMPPNP-loaded KRAS G12C (5 nM), 20 min with compound; GST-RAF1 RBD (9 nM); HTRF signal; read-out: KRASG12C RAF Disruption Assay (IC50)
ASSAY_READOUT: IC50 (nM)

(a) C#Cc1cccc2cccc(-c3ncc4c(N5CCC6C5CCN6C(=O)/C(F)=C/c5ccccn5)nc(OC[C@@]56CCCN5C[C@H](F)C6)nc4c3F)c12 (single isomer, unassigned) [Compound 107]
(b) CN1CCC[C@H]1COc1nc(N2CCN(C(=O)/C(F)=C/c3nccs3)[C@@H](CC#N)C2)c2cnc(-c3cccc4cccc(Cl)c34)c(F)c2n1 [Compound 21A]
(c) C#Cc1c(F)ccc2cc(O)cc(-c3ncc4c(N5C[C@H]6CC[C@@H](C5)N6C(=O)/C(F)=C/c5nccs5)nc(OC[C@@]56CCCN5C[C@H](F)C6)nc4c3F)c12 [Compound 1]
Query: Put these in order: smallest IC50 first, largest last. As an answer, provide the labels arranged in the order called for.
Reply: c, b, a
(c: 27 nM, b: 67 nM, a: 5600 nM)

Source of measurements: patent US20240067662A1
